Biological target: native mouse MET on living cells (mouse, UniProt P16056 25-1379)
Assay: cell-based or functional assay
Overview of recorded branches per spheroid, MLP29 cells, 2.5 nM for various binders
Entry rule: numbers only, all in branches.

Recorded branches per spheroid, MLP29 cells, 2.5 nM, per entry:
Task item: Query: branches per spheroid, MLP29 cells, 2.5 nM; subject: 76G7 chimeric llama-human IgG1 mAb (antibody, V domains shown, llama VH on human IgG1 CH1-CH2-CH3, llama VL on human lambda CL) VH: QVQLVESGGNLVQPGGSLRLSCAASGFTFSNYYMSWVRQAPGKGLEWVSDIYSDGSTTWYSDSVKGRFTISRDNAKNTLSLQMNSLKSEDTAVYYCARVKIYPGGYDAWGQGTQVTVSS VL: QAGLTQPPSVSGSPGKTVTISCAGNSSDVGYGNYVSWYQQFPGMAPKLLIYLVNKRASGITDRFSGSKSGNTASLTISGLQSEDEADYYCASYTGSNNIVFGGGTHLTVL
Reply: 18.7

Task item: Query: branches per spheroid, MLP29 cells, 2.5 nM; subject: 72F8 chimeric llama-human IgG1 mAb (antibody, V domains shown, llama VH on human IgG1 CH1-CH2-CH3, llama VL on human lambda CL) VH: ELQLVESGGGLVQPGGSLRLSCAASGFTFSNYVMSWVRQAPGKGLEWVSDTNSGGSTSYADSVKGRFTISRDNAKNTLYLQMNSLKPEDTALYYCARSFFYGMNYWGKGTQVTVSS VL: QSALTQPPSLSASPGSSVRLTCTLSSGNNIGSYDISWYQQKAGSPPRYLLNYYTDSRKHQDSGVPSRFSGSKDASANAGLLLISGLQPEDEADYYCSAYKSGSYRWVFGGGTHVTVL
Reply: 11.7

Task item: Query: branches per spheroid, MLP29 cells, 2.5 nM; subject: 71A3 chimeric llama-human IgG1 mAb (antibody, V domains shown, llama VH on human IgG1 CH1-CH2-CH3, llama VL on human lambda CL) VH: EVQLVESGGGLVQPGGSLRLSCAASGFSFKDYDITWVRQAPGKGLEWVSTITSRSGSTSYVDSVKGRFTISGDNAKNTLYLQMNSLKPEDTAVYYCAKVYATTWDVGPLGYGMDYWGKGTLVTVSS VL: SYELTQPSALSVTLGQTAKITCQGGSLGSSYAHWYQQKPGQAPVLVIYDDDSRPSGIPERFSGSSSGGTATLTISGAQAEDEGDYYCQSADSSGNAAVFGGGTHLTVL
Reply: 42

Task item: Query: branches per spheroid, MLP29 cells, 2.5 nM; subject: 71C3 chimeric llama-human IgG1 mAb (antibody, V domains shown, llama VH on human IgG1 CH1-CH2-CH3, llama VL on human lambda CL) VH: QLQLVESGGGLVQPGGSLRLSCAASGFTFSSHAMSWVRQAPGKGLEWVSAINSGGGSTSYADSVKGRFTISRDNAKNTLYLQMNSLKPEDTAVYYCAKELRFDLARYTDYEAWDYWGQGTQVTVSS VL: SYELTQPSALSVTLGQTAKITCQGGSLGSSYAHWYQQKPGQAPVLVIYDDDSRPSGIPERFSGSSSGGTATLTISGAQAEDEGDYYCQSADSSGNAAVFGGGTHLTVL
Reply: 15.7

***
Task item: Query: branches per spheroid, MLP29 cells, 2.5 nM; subject: 71G3 chimeric llama-human IgG1 mAb (antibody, V domains shown, llama VH on human IgG1 CH1-CH2-CH3, llama VL on human lambda CL) VH: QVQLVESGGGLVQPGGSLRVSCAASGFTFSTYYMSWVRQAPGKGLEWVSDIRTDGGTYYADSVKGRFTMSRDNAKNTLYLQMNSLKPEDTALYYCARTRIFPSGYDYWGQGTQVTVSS VL: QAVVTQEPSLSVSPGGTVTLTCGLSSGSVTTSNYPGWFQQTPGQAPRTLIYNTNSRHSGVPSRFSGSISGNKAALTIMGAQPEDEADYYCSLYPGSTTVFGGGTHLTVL
Reply: 34.3
